# experimental-system: Klebsiella pneumoniae PriA-SSB C-terminal tail interaction
# experiment-summary: K. pneumoniae PriA-SSBct interaction blockers – biochemical, AlphaScreen, virtual screen prioritized set, dose response (AID 1918986)
# particulars: PriA binding to biotinylated SSBct peptide
Active and inactive are the calls of the source.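 Rule for the calls: active = full-shape inhibition curve with partial efficacy, or partial curve whose IC50 upper confidence bound lies within tested doses; inactive = the rest.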
Classes to choose from: T for active, F for inactive

Ask: Called result for `Cc1ccc(-c2nc(SCC(=O)NCc3ccnc(-c4ccccn4)n3)n[nH]2)cc1`
Result: T

Ask: Can you look up the reported call for `CC(C)N(C)S(=O)(=O)c1ccc(F)c(C(=O)Nc2nc(-c3ccccn3)cs2)c1` for me?
Result: T

Ask: What outcome does the record of this test show for `FC(F)(F)c1cnc(NN=Cc2ccccn2)c(Cl)c1` ?
Result: T

Ask: Any idea what this test logged for `c1ccc(-c2ncc[nH]2)nc1` ?
Result: T

Ask: What call does the record list for OCCC(Nc1ccnc2c1ccc1cccnc12)C(F)F (centres undefined) ?
Result: T

Ask: What is the recorded call for this molecule in the test? Cc1c(N)nc(-c2ccccn2)nc1NCC1CCC(C2CC2)O1 (centres undefined)
Result: T

Ask: Call for entry `O[C@@H]1COC[C@@H]1Nc1ccc2ccc3cccnc3c2n1` :
Result: T

Ask: Name the outcome recorded for `c1ccc(-c2nc3c(c(N4CCCC4)n2)CCC3)nc1` in the assay.
Result: T

Ask: Per the records of this test, what outcome belongs to CC1Sc2ccc(C(=O)Nc3nc(-c4ccccn4)cs3)cc2NC1=O (centres undefined) ?
Result: T

Ask: Outcome logged for `O=[N+]([O-])c1ccc(SC2CCCCC2)c2ncccc12` in this assay:
Result: F

Ask: Give the logged outcome of this assay for the following molecule: `OCCCCNc1ccc2ccc3cccnc3c2n1`
Result: T

Ask: Can you look up the reported call for `Cc1nc(SCC(=O)Nc2n[nH]c(-c3ccccn3)n2)n[nH]1` for me?
Result: T

Ask: Could you please tell me the result logged for O=C(Nc1nc(-c2ccccn2)cs1)c1ccc(Cl)c(S(=O)(=O)NCC2CCCO2)c1 (centres undefined) in this assay?
Result: T

Ask: Called result for O=C1CC2(CCOC2)C(C(=O)Nc2nc(-c3ccccn3)cs2)CN1 (centres undefined)
Result: T

Ask: Record request — test call for `COc1cc([N+](=O)[O-])c(C(=O)Nc2nc(-c3ccccn3)cs2)cc1SC`
Result: T

Ask: How did this test come out for CC1CC(Nc2nc(-c3ccccn3)nc3c2CCC3)CC(C)N1 (centres undefined) ?
Result: T

Ask: Per the assay record, what outcome was assigned to `C(=NNc1ncnc2sccc12)c1ccccn1` ?
Result: T

Ask: Hey, what did the test say about CSCC(CCO)Nc1ccnc2c1ccc1cccnc12 (centres undefined) ?
Result: T

Ask: What classification did CC1CC(Nc2nc(-c3ccccn3)cs2)C1 (centres undefined) end up with in this test?
Result: T

Ask: What outcome does the record of this test show for `Fc1cccc(CNc2nc(-c3ccccn3)nc3c2CCC3)c1F` ?
Result: T

Ask: Test call, this molecule: `C(=NNc1ncnc2nc[nH]c12)c1ccccn1`
Result: T

Ask: I would be grateful if you could indicate the recorded call for `CO[C@H](C)[C@@H](C)Nc1nc(-c2ccccn2)nc2c1CCC2` .
Result: T

Ask: What call does the record list for `C1=C[C@@H](CNc2nc(-c3ccccn3)cs2)[C@H]2CO[C@@H]1C2` ?
Result: T

Ask: # outcome recorded in this test, key = CSCC(CCO)Nc1ccc2ccc3cccnc3c2n1 (centres undefined)
Result: T

---

# experimental-system: Klebsiella pneumoniae PriA-SSB C-terminal tail interaction
# experiment-summary: K. pneumoniae PriA-SSBct interaction blockers – biochemical, AlphaScreen, virtual screen prioritized set, dose response (AID 1918986)
# particulars: PriA binding to biotinylated SSBct peptide
recorded-endpoint: IC50

Ask: Give its IC50 value. Item: Cn1ccc(C23CCC(C2)C3C(=O)Nc2nc(-c3ccccn3)cs2)n1 (stereo not given)
Result: 22.2 µM

Ask: Given the entry `O=C(CN1C(=O)COc2ccc([N+](=O)[O-])cc21)Nc1nc(-c2ccccn2)cs1` , report its measured IC50.
Result: 12.4 µM

Ask: Sample `O=C(O)c1cc(-c2ccccc2)ccn1` — what was its IC50?
Result: 21 µM

Ask: Look up IC50: `Clc1cncnc1NN=Cc1ccccn1`
Result: 1.7 µM

Ask: Looking for the measured IC50 of CC1CCC(=NNc2ccccc2[N+](=O)[O-])CC1 (stereo not given) , can you help?
Result: 3.64 µM
